Molecular target: MLKL (Homo sapiens)
Sequence (Q8NB16 1-471): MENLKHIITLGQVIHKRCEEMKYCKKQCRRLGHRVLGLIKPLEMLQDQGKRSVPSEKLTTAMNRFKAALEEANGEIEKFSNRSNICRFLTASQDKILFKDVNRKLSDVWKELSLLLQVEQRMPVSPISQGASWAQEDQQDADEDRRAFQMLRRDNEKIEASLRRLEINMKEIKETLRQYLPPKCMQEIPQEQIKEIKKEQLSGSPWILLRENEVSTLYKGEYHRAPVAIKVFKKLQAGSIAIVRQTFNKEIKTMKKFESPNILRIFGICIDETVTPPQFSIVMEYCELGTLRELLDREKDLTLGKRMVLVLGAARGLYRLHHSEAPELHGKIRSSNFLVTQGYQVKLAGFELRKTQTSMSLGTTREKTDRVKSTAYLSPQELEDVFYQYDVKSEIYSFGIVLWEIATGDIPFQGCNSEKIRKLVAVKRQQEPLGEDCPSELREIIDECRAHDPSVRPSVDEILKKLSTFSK
Assay: MLKL degradation assay in HepG2 cell line (western blot)
Type: cell-based
Parameters: endogenous in cells; host or cells: HepG2 or HaCaT
Details: compound 1 μM; cell line not given
experimental_endpoint: Degradation assay (Degradation %) 1 μM
Write the answer as a number in %, unit excluded.

Reference set (2 entries):
>>> endpoint_result("Nc1ncc(-c2cnn(C3CCN(CC4CN(C(=O)COc5ccc6c(c5)C(=O)N(C5CCC(=O)NC5=O)C6=O)CCO4)CC3)c2)nc1C(=O)O[C@@H](C(=O)Nc1ccc(F)cc1)c1ccccc1 (stereo partly drawn)")
80.07
>>> endpoint_result("Nc1ncc(-c2cnn(C3CCN(CC4CCN(C(=O)CNc5ccc6c(c5)C(=O)N(C5CCC(=O)NC5=O)C6=O)CC4)CC3)c2)nc1C(=O)N[C@@H](C(=O)Nc1ccc(F)cc1)c1ccccc1 (stereo partly drawn)")
17.98

The record that follows has no Degradation assay (Degradation %) 1 μM shown yet.
Reported MLKL (Homo sapiens) Degradation assay (Degradation %) 1 μM for item Nc1ncc(-c2cnn(C3CCN(CCCN4CCN(c5ccc6c(c5)C(=O)N(C5CCC(=O)NC5=O)C6=O)CC4)CC3)c2)nc1C(=O)OC(C(=O)Nc1ccc(F)cc1)c1ccccc1 (stereo not drawn) was 66.35

Origin of measurements: patent US20240252488A1
